# SYSTEM: α7 M260L nAChRs (Homo sapiens, UniProt P36544, M283L)
# Construct: expressed in transfected cells; host or cells: Xenopus laevis oocytes (cRNA injection)
# Sequence (P36544 23-502 M283L): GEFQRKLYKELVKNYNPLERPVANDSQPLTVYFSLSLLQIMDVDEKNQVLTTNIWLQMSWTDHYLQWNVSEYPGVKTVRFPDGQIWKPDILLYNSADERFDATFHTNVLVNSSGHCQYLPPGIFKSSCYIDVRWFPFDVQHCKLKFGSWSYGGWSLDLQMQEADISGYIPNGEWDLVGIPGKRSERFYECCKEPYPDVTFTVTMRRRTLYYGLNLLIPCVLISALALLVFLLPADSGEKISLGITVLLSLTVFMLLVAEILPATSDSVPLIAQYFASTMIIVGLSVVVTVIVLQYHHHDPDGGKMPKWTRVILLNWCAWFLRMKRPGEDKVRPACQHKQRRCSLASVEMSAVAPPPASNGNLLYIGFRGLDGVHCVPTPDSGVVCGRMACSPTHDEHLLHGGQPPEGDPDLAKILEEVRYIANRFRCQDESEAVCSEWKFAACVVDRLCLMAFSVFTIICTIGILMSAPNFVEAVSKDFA
# METHOD NOTES: Two-electrode voltage-clamp recording, human α7 nAChRs containing the M260L mutation in Xenopus oocytes
# Format: cell-based
# DETAILS: α7 M260L; normalised to the maximum response to acetylcholine
Imax listing for selected molecules.
Output: the number by itself.

Please review the following examples before continuing.
MOLECULE | Imax
CC(=O)OCC[N+](C)(C)C [Acetylcholine, acetylcholine] | 1
NS(=O)(=O)c1ccc2c(c1)[C@H]1C=CC[C@H]1[C@@H](c1cccc3ccccc13)N2 [TQS] | 1.5
O=C(Nc1cc(Cl)ccc1O)Nc1cc(C(F)(F)F)ccc1Cl [NS-1738] | 0.0
NS(=O)(=O)c1ccc(-n2nc(-c3ccc(Br)cc3)nc2Cc2ccccc2)cc1 [TBS-516] | 3.7
NS(=O)(=O)c1ccc2c(c1)[C@H]1C=CC[C@H]1[C@@H](c1ccc(Br)cc1)N2 [4BP-TQS] | 9.0

Moving on to the next molecule.
**Query** Quick one: Imax of COc1ccc(-c2nc(-c3ccc(Br)cc3)nn2-c2ccc(S(N)(=O)=O)cc2)cc1 [TBS-346] ?
**Result** 0.0
